Value source: the Human Domainome abundance scans (Beltran et al. 2025)

B1: Formin-binding protein 4, residues 200 to 261; numbered along this chain, Q8N3X1 (parent)
chain: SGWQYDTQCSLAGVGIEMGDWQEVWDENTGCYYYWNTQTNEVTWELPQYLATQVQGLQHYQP

# Variants of: B1
# experimental.protocol: abundance fitness (aPCA) (normalised: wild type 0, dead -1); higher = more abundant; growth selection in yeast, the domain comes from the species named
# test.conditions: Homo sapiens
// label = yes if abundance fitness is not less than -0.4, otherwise no

Solved cases (3 shown):
QUERY: State whether the measured abundance fitness reaches -0.4, counting equality as reaching it, for `C9V`
RESULT: yes

QUERY: State whether the measured abundance fitness reaches -0.4, counting equality as reaching it, for `I16T`
RESULT: no

QUERY: State whether the measured abundance fitness reaches -0.4, counting equality as reaching it, for `T39M`
RESULT: yes

Others:
QUERY: State whether the measured abundance fitness reaches -0.4, counting equality as reaching it, for `G13V`
RESULT: no

QUERY: State whether the measured abundance fitness reaches -0.4, counting equality as reaching it, for `Y60I`
RESULT: yes

QUERY: State whether the measured abundance fitness reaches -0.4, counting equality as reaching it, for `I16F`
RESULT: yes

QUERY: State whether the measured abundance fitness reaches -0.4, counting equality as reaching it, for `A51G`
RESULT: yes

QUERY: State whether the measured abundance fitness reaches -0.4, counting equality as reaching it, for `D20Y`
RESULT: yes

QUERY: State whether the measured abundance fitness reaches -0.4, counting equality as reaching it, for `E41G`
RESULT: no

QUERY: State whether the measured abundance fitness reaches -0.4, counting equality as reaching it, for `Y32N`
RESULT: no

QUERY: State whether the measured abundance fitness reaches -0.4, counting equality as reaching it, for `W25F`
RESULT: yes
